Read-out: Plasminogen activator inhibitor-1 (PAI1), SERPINE1 (gene 5054)
experiment-description: BSK_BE3C_PAI1: BioMAP Diversity Plus: BE3C Assay for Plasminogen activator inhibitor-1 (PAI1) Biomarker Activity (AID 2283037)
conditions: primary human bronchial epithelial cells; actives raise or lower the signal
Calls of active or inactive are those of the source. Rule for the calls: active = hit-call score of the fitted dose curve at least 0.9, where 1 is the maximum; inactive = score below 0.9.
Form entry, call: pick from active, inactive

Please share the test call associated with Cc1ccc(N=Nc2c(O)ccc3ccccc23)c(C)c1 .
active

Please share the test call associated with O=P(O)(O)CCC(F)(F)C(F)(F)C(F)(F)C(F)(F)C(F)(F)C(F)(F)C(F)(F)C(F)(F)F .
inactive

Please share the test call associated with Oc1ccc(Cc2ccccc2O)cc1 .
inactive

Please share the test call associated with CN(CCO)S(=O)(=O)C(F)(F)C(F)(F)C(F)(F)C(F)(F)C(F)(F)C(F)(F)C(F)(F)C(F)(F)F .
inactive

Please share the test call associated with CCC(C)c1ccccc1O (stereo unspecified) .
inactive

Please share the test call associated with OCCN1CN(CCO)CN(CCO)C1 .
inactive
